Each item that follows carries a reported EC50.
Target: human mAChR M4 (Homo sapiens, UniProt P08173)
Sequence (P08173 whole entry): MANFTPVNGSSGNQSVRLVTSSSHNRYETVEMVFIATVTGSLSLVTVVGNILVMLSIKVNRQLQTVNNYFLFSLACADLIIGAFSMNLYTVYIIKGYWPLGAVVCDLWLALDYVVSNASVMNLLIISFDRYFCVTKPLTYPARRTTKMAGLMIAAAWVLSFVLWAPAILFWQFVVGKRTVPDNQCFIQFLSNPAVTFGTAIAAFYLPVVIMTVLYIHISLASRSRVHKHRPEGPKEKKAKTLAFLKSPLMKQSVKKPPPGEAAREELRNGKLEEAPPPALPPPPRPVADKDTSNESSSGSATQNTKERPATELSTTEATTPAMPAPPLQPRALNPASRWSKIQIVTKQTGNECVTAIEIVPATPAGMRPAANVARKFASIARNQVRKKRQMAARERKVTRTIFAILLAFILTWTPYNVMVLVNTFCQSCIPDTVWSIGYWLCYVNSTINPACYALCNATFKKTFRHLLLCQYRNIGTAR
Experiment: mAChR M4 cell-based functional assay (calcium flux), human M4
Conditions: Human M4 EC50 (nM), Table 10; calcium flux, PAM activity with EC20 acetylcholine
Structures can show the parent of a compound that is named as a salt.
Express the result in nM but write the number alone.

Look over these answered cases.
* Cc1nnc2oc3c(N4CC5(COC5)C4)ncnc3c2c1C [Compound 307] | 4840
* Cc1nnc2sc3c(N(C)Cc4ccc(C(C)(C)O)cc4)ncnc3c2c1C [Compound 137] | 222
* Cc1nc2sc3c(NCc4ccc(CN5CCOCC5)cc4)ncnc3c2c(C)c1Cl [Compound 269, dihydrochloride] | 3570
* Cc1nnc2sc3c(NCc4ccc(F)c(C(=O)NC5CCCC5)c4)ncnc3c2c1C [Compound 178] | 1030
* Cc1cc(C)c2c(n1)sc1c(NCc3ccc(C(C)(C)O)cc3)ncnc12 [Compound 206] | 910
* Cc1nc2oc3c(NCc4ccc(C(C)(C)O)cc4)ncnc3c2c(C)c1Cl [Compound 251] | 1160
* Cc1nnc2sc3c(NC(C)c4ccc(C(C)(C)O)cc4)ncnc3c2c1C (centres unmarked) [Compound 100] | 7720

Attention now turns to another entry.
**Q:** Short answer please: EC50, human mAChR M4 (Homo sapiens, UniProt P08173), entry Cc1nc2sc3c(N4CCC(F)C4)ncnc3c2c(C)c1Cl (centres unmarked) [Compound 258, hydrochloride]
**A:** 1510
